TESTED_TARGET: T1, rhIL-17A (human, UniProt Q16552 24-155)
T1 sequence: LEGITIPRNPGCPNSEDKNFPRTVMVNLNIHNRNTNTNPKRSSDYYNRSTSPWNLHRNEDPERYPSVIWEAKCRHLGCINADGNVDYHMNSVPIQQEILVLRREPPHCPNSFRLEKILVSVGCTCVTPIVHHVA
MEASUREMENT_PROTOCOL: cell-based or functional assay
PARAMETER: IC50, synoviocyte IL-8 production, rhIL-17A (30 ng/ml) (µg/mL)
Report as a plain number; the unit µg/mL is understood.

In plain terms, rat 1D10 (antibody, V domains shown, Parental rat monoclonal antibody; also called ID10; anti-IL-17A antibody 1D10) VH: QVQLKESGPGLVQPSQTLSLTCTVSGFSLTNYYVHWVRQPPGKGLEWMGGVWNDGDTSYNSVLRSRLSITRDTSKSQVLLKMSSLQTEDTATYYCAREGREGFVGYYVMDAWGPGASVTVSS VL: DIQMTQSPSFLSASVGERVTLSCKASQNINKYLDWFQQKLGEAPKLLIYNADNLHTGIPSRFSGSGSFSDFILTISSLQPEDDATYFCLQRESWPYTFGAGTKLELKR has a documented IC50, synoviocyte IL-8 production, rhIL-17A (30 ng/ml) of 0.059
